Molecular target: thrombin (Homo sapiens, UniProt P00734)
Construct: purchased Sigma Chem. Co. T-7009
Test: Inhibition of thrombin
Type: biochemical
Details: 25 μM Bz-Phe-Val-Arg-AMC, pH 7.5, read-out: Thrombin % I @ 10 uM

[
  {
    "Molecule": "CCNC(=O)C(=O)C(CC)NC(=O)C(CC(=O)[C@@H](CC)c1ccccc1)CC(C)C (stereo partly shown)",
    "Unit of measure": "%",
    "inhibition at 10 µM": 0
  },
  {
    "Molecule": "CC(C)CC(CC(=O)N1CCc2ccccc2C1)C(=O)N[C@H](C=O)Cc1ccccc1 (single isomer, unassigned) [Compound 16f-I, 2-THIQ-COCH2 CH(iBu)Cd-Phe-H]",
    "Unit of measure": "%",
    "inhibition at 10 µM": 0
  },
  {
    "Molecule": "CCC(C(=O)CC(CC(C)C)C(=O)NC(Cc1ccccc1)C(=O)CF)c1ccccc1 (stereo not shown) [Compound 14a, CH3 CH2 CH(Ph)COCH2 CH(iBu)CO-Phe-CH2 F]",
    "Unit of measure": "%",
    "inhibition at 10 µM": 0
  },
  {
    "Molecule": "CCNC(=O)C(=O)C(CC(C)C)NC(=O)C(CC(=O)C1c2ccccc2Oc2ccccc21)CC(C)C (stereo not shown)",
    "Unit of measure": "%",
    "inhibition at 10 µM": 13
  }
]

Hey, just so you know, these numbers are from patent US6329377A.
